# Test system: Escherichia coli ATCC BAA-2523
# Type: cell-based
# reported_conditions: ATCC BAA-2523
Bridge positions count the residues as written; N and C are the ends. Square brackets hold non-standard residues; d marks the D form. Peptide text beside a SMILES is read from it. * marks the point of attachment. dOrn = NCCC[C@@H](N)C(=O)O; Nonanoyl = CCCCCCCCC(=O)*; X1 = CC[C@H](C)CCCCC(=O)*; Heptanoyl = CCCCCCC(=O)*; dDap = NC[C@@H](N)C(=O)O; Dab = NCC[C@H](N)C(=O)O; Dap = NC[C@H](N)C(=O)O
Measured MIC accompanies every entry in the list below.

CCCCCCCCC(=O)N[C@@H](CCN)C(=O)N[C@H](C(=O)N[C@H](CCCN)C(=O)N[C@H]1CCNC(=O)[C@H]([C@@H](C)O)NC(=O)[C@H](CCN)NC(=O)[C@H](CCN)NC(=O)[C@H]([C@@H](C)O)NC(=O)[C@@H](Cc2ccccc2)NC(=O)[C@H](CCN)NC1=O)[C@@H](C)O [Compound 25] (Nonanoyl-[Dab]T[dOrn][Dab][Dab][dF]T[Dab][Dab]T; lactam 4-C) = ≤0.03 µg/mL

Look up MIC for this molecule: CCCCCCC(=O)N[C@@H](CCN)C(=O)N[C@H](C(=O)N[C@@H](CN)C(=O)N[C@H]1CCNC(=O)[C@H]([C@@H](C)O)NC(=O)[C@H](CCN)NC(=O)[C@H](CCN)NC(=O)[C@H](CC(C)C)NC(=O)[C@@H](Cc2ccccc2)NC(=O)[C@H](CCN)NC1=O)[C@@H](C)O [Compound 39] (Heptanoyl-[Dab]T[Dap][Dab][Dab][dF]L[Dab][Dab]T; lactam 4-C)
0.03 µg/mL

Look up MIC for this molecule: CC[C@H](C)CCCCC(=O)N[C@@H](CCN)C(=O)N[C@H](C(=O)N[C@H](CN)C(=O)N[C@H]1CCNC(=O)[C@H]([C@@H](C)O)NC(=O)[C@H](CCN)NC(=O)[C@H](CCN)NC(=O)[C@H]([C@@H](C)O)NC(=O)[C@H](Cc2ccccc2)NC(=O)[C@H](CCN)NC1=O)[C@@H](C)O [Compound 101] (X1-[Dab]T[dDap][Dab][Dab]FT[Dab][Dab]T; lactam 4-C)
>64 µg/mL

###

# Tested on: Acinetobacter baumannii NCTC 13304 (OXA-27)
# Type: cell-based
# reported_conditions: NCTC 13304
Bridge positions count the residues as written; N and C are the ends. Square brackets hold non-standard residues; d marks the D form. Peptide text beside a SMILES is read from it. * marks the point of attachment. X1 = CC[C@H](C)CCCCC(=O)*; Octanoyl = CCCCCCCC(=O)*; Orn = NCCC[C@H](N)C(=O)O; Dab = NCC[C@H](N)C(=O)O; Dap = NC[C@H](N)C(=O)O
measurement_name: MIC

Guide cases for MIC, answers given:
CC[C@H](C)CCCCC(=O)N[C@@H](CCN)C(=O)N[C@H](C(=O)N[C@H](CO)C(=O)N[C@H]1CCNC(=O)[C@H]([C@@H](C)O)NC(=O)[C@H](CN)NC(=O)[C@H](CCN)NC(=O)[C@H]([C@@H](C)O)NC(=O)[C@@H](Cc2ccccc2)NC(=O)[C@H](CCN)NC1=O)[C@@H](C)O [Compound 81] (X1-[Dab]T[dS][Dab][Dab][dF]T[Dab][Dap]T; lactam 4-C) = ≤0.03 µg/mL
CCCCCCCC(=O)N[C@@H](CCN)C(=O)N[C@H](C(=O)N[C@H](CO)C(=O)N[C@H]1CCNC(=O)[C@H]([C@@H](C)O)NC(=O)[C@H](CCN)NC(=O)[C@H](CN)NC(=O)[C@H]([C@@H](C)O)NC(=O)[C@@H](Cc2ccccc2)NC(=O)[C@H](CCN)NC1=O)[C@@H](C)O [Compound 73] (Octanoyl-[Dab]T[dS][Dab][Dab][dF]T[Dap][Dab]T; lactam 4-C) = ≤0.03 µg/mL

Shift focus to the following entry.
Look up MIC for this compound: CCCCCCCC(=O)N[C@@H](CCN)C(=O)N[C@H](C(=O)N[C@H](CO)C(=O)N[C@H]1CCNC(=O)[C@H]([C@@H](C)O)NC(=O)[C@H](CCCN)NC(=O)[C@H](CCN)NC(=O)[C@H]([C@@H](C)O)NC(=O)[C@@H](Cc2ccccc2)NC(=O)[C@H](CCN)NC1=O)[C@@H](C)O [Compound 88] (Octanoyl-[Dab]T[dS][Dab][Dab][dF]T[Dab][Orn]T; lactam 4-C)
≤0.03 µg/mL

###

Measured MIC accompanies every entry in the list below.
# Test system: Pseudomonas aeruginosa ATCC 27853
# Type: cell-based
# reported_conditions: ATCC 27853
Bridge positions count the residues as written; N and C are the ends. Square brackets hold non-standard residues; d marks the D form. Peptide text beside a SMILES is read from it. * marks the point of attachment. Dab(CH2SO3H) = N[C@@H](CCNCS(=O)(=O)O)C(=O)O; Heptanoyl(6-Me) = CC(C)CCCCC(=O)*; X1 = CC[C@H](C)CCCCC(=O)*; Heptanoyl = CCCCCCC(=O)*; dDap = NC[C@@H](N)C(=O)O; Dab = NCC[C@H](N)C(=O)O; Dap = NC[C@H](N)C(=O)O
Kindly provide the numeric value in µg/mL only, without the unit symbol.

CC[C@H](C)CCCCC(=O)N[C@@H](CCN)C(=O)N[C@H](C(=O)N[C@H](CN)C(=O)N[C@H]1CCNC(=O)[C@H]([C@@H](C)O)NC(=O)[C@H](CCN)NC(=O)[C@H](CCN)NC(=O)[C@H](CC(C)C)NC(=O)[C@@H](Cc2ccccc2)NC(=O)[C@H](CCN)NC1=O)[C@@H](C)O [Compound 31] (X1-[Dab]T[dDap][Dab][Dab][dF]L[Dab][Dab]T; lactam 4-C) = 0.03
CC(C)CCCCC(=O)N[C@@H](CCNCS(=O)(=O)O)C(=O)N[C@H](C(=O)N[C@H](CO)C(=O)N[C@H]1CCNC(=O)[C@H]([C@@H](C)O)NC(=O)[C@H](CCN)NC(=O)[C@H](CCN)NC(=O)[C@H]([C@@H](C)O)NC(=O)[C@@H](Cc2ccccc2)NC(=O)[C@H](CCN)NC1=O)[C@@H](C)O [Compound 108] ({Heptanoyl(6-Me)}-[Dab(CH2SO3H)]T[dS][Dab][Dab][dF]T[Dab][Dab]T; lactam 4-C) = 0.25

Shift focus to the following entry.
Look up MIC for this compound: CCCCCCC(=O)N[C@@H](CN)C(=O)N[C@H](C(=O)N[C@H](CO)C(=O)N[C@H]1CCNC(=O)[C@H]([C@@H](C)O)NC(=O)[C@H](CCN)NC(=O)[C@H](CCN)NC(=O)[C@H]([C@@H](C)O)NC(=O)[C@@H](Cc2ccccc2)NC(=O)[C@H](CCN)NC1=O)[C@@H](C)O [Compound 54] (Heptanoyl-[Dap]T[dS][Dab][Dab][dF]T[Dab][Dab]T; lactam 4-C)
64

###

# Tested on: Acinetobacter baumannii NCTC 13304 (OXA-27)
# Type: cell-based
# reported_conditions: NCTC 13304
# Protocol: The minimal inhibitory concentration (MIC) was determined by the broth microdilution method according to the recommended procedures of the Clinical and Laboratory Standards Institute (CLSI). An appropriate amount of the cyclic lipopeptide compounds prepared in Examples 1-120 and the reference standards were weighed and dissolved in sterile pure water. […]
Bridge positions count the residues as written; N and C are the ends. Square brackets hold non-standard residues; d marks the D form. Peptide text beside a SMILES is read from it. * marks the point of attachment. Heptanoyl(6-Me) = CC(C)CCCCC(=O)*; Sulfomethyl = O=S(=O)(O)C*; X1 = CC[C@H](C)CCCCC(=O)*; dDab = NCC[C@@H](N)C(=O)O; Octanoyl = CCCCCCCC(=O)*; Orn = NCCC[C@H](N)C(=O)O; Dab = NCC[C@H](N)C(=O)O; Dap = NC[C@H](N)C(=O)O
measurement_name: MIC (µg/mL)
Kindly provide the numeric value in µg/mL only, without the unit symbol.

Guide cases for MIC, answers given:
CC[C@H](C)CCCCC(=O)N[C@@H](CN)C(=O)N[C@H](C(=O)N[C@H](CCN)C(=O)N[C@H]1CCNC(=O)[C@H]([C@@H](C)O)NC(=O)[C@H](CCN)NC(=O)[C@H](CCN)NC(=O)[C@H](CC(C)C)NC(=O)[C@@H](Cc2ccccc2)NC(=O)[C@H](CCN)NC1=O)[C@@H](C)O [Compound 91] (X1-[Dap]T[dDab][Dab][Dab][dF]L[Dab][Dab]T; lactam 4-C) = 0.03
CCCCCCCC(=O)N[C@@H](CN)C(=O)N[C@H](C(=O)N[C@H](CCN)C(=O)N[C@H]1CCNC(=O)[C@H]([C@@H](C)O)NC(=O)[C@H](CCN)NC(=O)[C@H](CCN)NC(=O)[C@H](CC(C)C)NC(=O)[C@@H](Cc2ccccc2)NC(=O)[C@H](CCN)NC1=O)[C@@H](C)O [Compound 93] (Octanoyl-[Dap]T[dDab][Dab][Dab][dF]L[Dab][Dab]T; lactam 4-C) = 0.03
CC(C)CCCCC(=O)N[C@@H](CCN)C(=O)N[C@H](C(=O)N[C@@H](CCCN)C(=O)N[C@H]1CCNC(=O)[C@H]([C@@H](C)O)NC(=O)[C@H](CCN)NC(=O)[C@H](CCN)NC(=O)[C@H](CC(C)C)NC(=O)[C@@H](Cc2ccccc2)NC(=O)[C@H](CCN)NC1=O)[C@@H](C)O [Compound 47] ({Heptanoyl(6-Me)}-[Dab]T[Orn][Dab][Dab][dF]L[Dab][Dab]T; lactam 4-C) = 0.06
CC[C@H](C)CCCCC(=O)N[C@@H](CCN)C(=O)N[C@H](C(=O)N[C@@H](CCCN)C(=O)N[C@H]1CCNC(=O)[C@H]([C@@H](C)O)NC(=O)[C@H](CCN)NC(=O)[C@H](CCN)NC(=O)[C@H]([C@@H](C)O)NC(=O)[C@@H](Cc2ccccc2)NC(=O)[C@H](CCN)NC1=O)[C@@H](C)O [Compound 26] (X1-[Dab]T[Orn][Dab][Dab][dF]T[Dab][Dab]T; lactam 4-C) = 0.06

Look up MIC for this molecule: CCCCCCCC(=O)N[C@@H](CCN)C(=O)N[C@H](C(=O)N[C@@H](CCCN)C(=O)N[C@H]1CCNC(=O)[C@H]([C@@H](C)O)NC(=O)[C@H](CCN)NC(=O)[C@H](CCN)NC(=O)[C@H]([C@@H](C)O)NC(=O)[C@@H](Cc2ccccc2)NC(=O)[C@H](CCN)NC1=O)[C@@H](C)O [Compound 28] (Octanoyl-[Dab]T[Orn][Dab][Dab][dF]T[Dab][Dab]T; lactam 4-C)
0.06

Look up MIC for this molecule: CC(C)CCCCC(=O)N[C@@H](CCN)C(=O)N[C@H](C(=O)N[C@H](COCS(=O)(=O)O)C(=O)N[C@H]1CCNC(=O)[C@H]([C@@H](C)O)NC(=O)[C@H](CCN)NC(=O)[C@H](CCN)NC(=O)[C@H]([C@@H](C)O)NC(=O)[C@@H](Cc2ccccc2)NC(=O)[C@H](CCN)NC1=O)[C@@H](C)O [Compound 103] ({Heptanoyl(6-Me)}-[Dab]T[dS](Sulfomethyl)[Dab][Dab][dF]T[Dab][Dab]T; lactam 4-C)
0.06
